The reported numbers originate from patent US11059795B2.

assay: In vivo pharmacokinetics in plasma after oral gavage (PO) in male CD-1 mice; details: mouse; single PO dose 5 mg/kg, male CD-1 mice, plasma
Assay metric: Cmax (ng/mL)

molecule=CC(C)(c1ccc(OCc2ocnc2S(C)(=O)=O)cc1)c1cc(Cl)c(OCCCl)c(Cl)c1 units_of_measure=ng/mL value_measured=1140
molecule="C[C@H](Oc1ccc(C(C)(C)c2cc(Cl)c(OCCCl)c(C#N)c2)cc1)c1ccnc(NS(C)(=O)=O)n1 (single isomer, unassigned)" units_of_measure=ng/mL value_measured=8500
molecule=CCS(=O)(=O)Nc1nc(COc2ccc(C(C)(C)c3cc(Cl)c(OCCCl)c(C#N)c3)cc2)co1 units_of_measure=ng/mL value_measured=3110
molecule=CC(C)(c1ccc(OCc2ncc(S(C)(=O)=O)o2)cc1)c1cc(Cl)c(OCCCl)c(Cl)c1 units_of_measure=ng/mL value_measured=1610
molecule=CCS(=O)(=O)Nc1nccc(COc2ccc(C(C)(C)c3cc(Cl)c(OCCCl)c(C#N)c3)cc2)n1 units_of_measure=ng/mL value_measured=7050
molecule=CC(C)(c1ccc(OCc2coc(NS(C)(=O)=O)n2)cc1)c1cc(Cl)c(OCCCl)c(Cl)c1 units_of_measure=ng/mL value_measured=1270
molecule=CC(C)(c1ccc(OCc2ncc(S(C)(=O)=O)s2)cc1)c1cc(Cl)c(OCCCl)c(C#N)c1 units_of_measure=ng/mL value_measured=2970
molecule=CC(C)(c1ccc(OCc2ccnc(NS(C)(=O)=O)n2)cc1)c1cc(Cl)c(OCCCl)c(Cl)c1 units_of_measure=ng/mL value_measured=6310
molecule=Cc1cc(C(C)(C)c2ccc(OCc3ocnc3S(C)(=O)=O)cc2)cc(C#N)c1OCCCl units_of_measure=ng/mL value_measured=2010
molecule=CC(C)(c1ccc(OCc2nc(S(C)(=O)=O)cs2)cc1)c1cc(Cl)c(OCCCl)c(C#N)c1 units_of_measure=ng/mL value_measured=3430
molecule=CC(C)(c1ccc(OCc2ocnc2S(C)(=O)=O)cc1)c1cc(Cl)c(OCCCl)c(C#N)c1 units_of_measure=ng/mL value_measured=2010
molecule=CC(C)(c1ccc(OCc2ccnc(NS(C)(=O)=O)n2)cc1)c1cc(Cl)c(OCCCl)c(C#N)c1 units_of_measure=ng/mL value_measured=2670
molecule="CC(Oc1ccc(C(C)(C)c2cc(Cl)c(OCCCl)c(Cl)c2)cc1)c1ocnc1S(C)(=O)=O (centres unmarked)" units_of_measure=ng/mL value_measured=819
molecule=Cc1cnc(NS(C)(=O)=O)nc1COc1ccc(C(C)(C)c2cc(Cl)c(OCCCl)c(C#N)c2)cc1 units_of_measure=ng/mL value_measured=4080

====

Target: androgen receptor (AR) (Homo sapiens, UniProt P10275, T878A)
Construct: LNCaP cells were transiently transfected with the PSA (6.1 kb)-luciferase reporter for 24 h; endogenous in cells; host or cells: LNCaP
Sequence (P10275 whole entry T878A): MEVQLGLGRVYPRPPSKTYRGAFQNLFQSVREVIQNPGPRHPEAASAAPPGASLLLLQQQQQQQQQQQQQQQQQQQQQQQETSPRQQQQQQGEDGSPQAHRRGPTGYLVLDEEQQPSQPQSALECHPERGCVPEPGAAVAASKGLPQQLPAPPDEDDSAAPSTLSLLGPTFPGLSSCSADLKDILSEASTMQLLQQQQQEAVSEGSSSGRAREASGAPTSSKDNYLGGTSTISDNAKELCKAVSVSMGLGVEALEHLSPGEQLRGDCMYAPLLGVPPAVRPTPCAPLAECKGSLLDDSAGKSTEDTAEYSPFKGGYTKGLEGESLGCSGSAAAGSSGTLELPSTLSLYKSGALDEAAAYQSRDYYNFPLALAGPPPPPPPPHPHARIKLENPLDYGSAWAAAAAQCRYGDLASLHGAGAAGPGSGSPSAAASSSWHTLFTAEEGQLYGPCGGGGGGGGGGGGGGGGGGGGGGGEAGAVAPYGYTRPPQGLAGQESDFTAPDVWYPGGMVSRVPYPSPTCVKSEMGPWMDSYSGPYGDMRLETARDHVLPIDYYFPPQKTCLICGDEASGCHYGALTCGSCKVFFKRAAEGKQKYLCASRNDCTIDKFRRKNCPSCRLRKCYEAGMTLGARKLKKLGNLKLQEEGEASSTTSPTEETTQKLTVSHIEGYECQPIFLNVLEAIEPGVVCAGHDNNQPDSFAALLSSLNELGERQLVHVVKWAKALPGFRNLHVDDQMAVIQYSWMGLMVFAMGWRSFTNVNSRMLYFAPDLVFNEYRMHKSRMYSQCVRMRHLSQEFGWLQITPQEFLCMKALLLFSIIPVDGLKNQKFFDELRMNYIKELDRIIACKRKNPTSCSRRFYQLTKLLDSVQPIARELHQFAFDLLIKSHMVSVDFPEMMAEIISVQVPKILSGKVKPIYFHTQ
Test: Androgen-induced PSA (6.1 kb)-luciferase reporter assay in LNCaP cells
Type: cell-based
Settings: LNCaP cells transfected with PSA (6.1 kb)-luciferase reporter, R1881 1 nM, 24 h; read-out: PSA-Luc IC50 Range
Experimental: The PSA (6.1 kb)-luciferase reporter contains functional AREs (androgen response elements) to which AR binds in response to androgen to induce luciferase activity. Cells were lysed using Passive Lysis Buffer (Promega) and then collected into V-bottom 96-well tissue culture plates. Lysates were centrifuged at 4° C. for 5 minutes at 3000 rpm. To measure luminescence of LNCaP cell lysates the Firefly Luciferase Assay System (Promega) was employed, according to manufacturer's protocol. […]
// IC50 lookup, one value per entry
Assay metric: IC50

compound=CC(C)(c1cc(Cl)c(OCCCl)c(Cl)c1)c1ccc(OCc2ocnc2S(C)(=O)=O)c(C(N)=O)c1 assay_metric=IC50 value_measured="500 to 2000 nM"
compound="CC(Oc1ccc(C(C)(C)c2cc(Cl)c(OCCCl)c(C#N)c2)cc1)c1ccnc(NS(C)(=O)=O)n1 (stereo not shown)" assay_metric=IC50 value_measured="500 to 2000 nM"
compound=CC(C)(c1ccc(OCc2n[nH]cc2NS(=O)(=O)C(F)(F)F)cc1)c1cc(Cl)c(OCCCl)c(Cl)c1 assay_metric=IC50 value_measured="< 500 nM"
compound=C[C@](O)(c1ccc(OCc2ocnc2S(C)(=O)=O)cc1)c1cc(Cl)c(OCCCl)c(C#N)c1 assay_metric=IC50 value_measured="500 to 2000 nM"
